# credit: patent US20040044000A1

Lab note: IC50 readings collected with MMP-14 catalytic domain (MMP-14CD) (Homo sapiens, UniProt P50281) for the following molecules.

get_value(item= O=C1CC(NC(=O)c2ccc(Cn3ccc4ccc(C#CCc5ccccc5)cc4c3=O)cc2)=NN1 [Example 22] , readout=IC50) returns 16 µM

Data point: COc1ccc(CNC(=O)c2ccc3ccn(Cc4ccc(S(C)(=O)=O)cc4)c(=O)c3c2)cc1 [Example 52] ; IC50 = > 30 µM

Record COc1cccc(CNC(=O)c2ccc3ccn(Cc4ccc(-c5nn[nH]n5)cc4)c(=O)c3c2)c1 [Example 59] . Reported IC50: > 30 µM

Memo: COc1cc(CNC(=O)c2ccc3ccn(Cc4ccc(F)c(F)c4)c(=O)c3c2)ccn1 [Example 23] , reported IC50: > 100 µM

Entry O=C(O)c1ccc(Cn2ccc3ccc(C(=O)NCc4ccncc4)cc3c2=O)cc1 [Example 29] ; IC50 = > 100 µM

Record summary for Cc1ccc(CNC(=O)c2ccc3ccn(Cc4ccc(-c5nn[nH]n5)cc4)c(=O)c3c2)cc1 [Example 60] : reported IC50 = > 100 µM

Input COc1ccc(CNC(=O)c2ccc3ccn(Cc4ccc(-c5nn[nH]n5)cc4)c(=O)c3c2)cc1 [Example 58] . Output IC50: > 100 µM

Memo: COc1cccc(CNC(=O)c2ccc3ccn(Cc4ccc(C#N)cc4)c(=O)c3c2)c1 [Example 37] , reported IC50: > 30 µM

Recorded result, O=C(O)c1ccc(Cn2ccc3ccc(C(=O)NCc4ccc(F)cc4)cc3c2=O)cc1 [Example 31] , IC50: > 100 µM

---

Entries and their pIC50
Biological target: MMP-13 catalytic domain (MMP-13CD) (Homo sapiens, UniProt P45452)
Construct: use the catalytic domain of the MMP-13 enzyme, namely matrix metalloproteinase-13 catalytic domain (“MMP-13CD”), rather than the corresponding full-length enzyme
Test: Inhibition of MMP-13 catalytic domain (thiopeptolide substrate hydrolysis)
Type: biochemical
Settings: Biological Table 2, compounds of Example 66; read-out: MMP-13CD IC50
Worth noting: pIC50 values are minus log10 of concentrations stated in mol/L.

{"columns": ["compound", "pIC50"],
 "data": [
  ["COC(Cn1ccc2ccc(C#CCc3ccccc3)cc2c1=O)OC [Example 66h]", 4.47]
]}

Input O=c1c2cc(C#CCc3ccccc3)ccc2ccn1Cc1ccccc1 [Example 66ag] . Output pIC50: 5.72

---

Molecular target: MMP-13 catalytic domain (MMP-13CD) (Homo sapiens)
Construct: use the catalytic domain of the MMP-13 enzyme, namely matrix metalloproteinase-13 catalytic domain (“MMP-13CD”), rather than the corresponding full-length enzyme
Test: Inhibition of MMP-13 catalytic domain (thiopeptolide substrate hydrolysis)
Assay type: biochemical
Conditions: Biological Table 2, compounds of Example 66; read-out: MMP-13CD IC50
pIC50: −log10 of the molar value.
# pIC50 >= 5 gives T, anything below gives F

Record excerpt, results attached:
{"columns": ["compound", "group"],
 "data": [
  ["O=c1c2cc(C#CCc3ccccc3)ccc2ccn1CCCC(F)(F)F [Example 66ai]", "F"],
  ["CC1OCCCC1n1ccc2ccc(C#CCc3ccccc3)cc2c1=O (stereo not drawn) [Example 66g]", "F"],
  ["O=c1c2cc(C#CCc3ccccc3)ccc2ccn1CCCCCCO [Example 66ac]", "T"],
  ["O=c1c2cc(C#CCc3ccccc3)ccc2ccn1CC[S+]([O-])c1ccccc1 (stereo not drawn) [Example 66z]", "F"]
]}

Now for another entry.
// query Determine whether this compound has pIC50 no lower than 5: O=c1c2cc(C#CCc3ccccc3)ccc2ccn1CC1OCCO1 [Example 66n]
// result F

---

Target: MMP-13 catalytic domain (MMP-13CD) (Homo sapiens, UniProt P45452)
Construct: use the catalytic domain of the MMP-13 enzyme, namely matrix metalloproteinase-13 catalytic domain (“MMP-13CD”), rather than the corresponding full-length enzyme
Experiment: Inhibition of MMP-13 catalytic domain (thiopeptolide substrate hydrolysis)
Assay type: biochemical
Details: Biological Table 1; read-out: MMP-13CD IC50
Listing of recorded IC50 by entry.

{"columns": ["record_smiles", "IC50"],
 "data": [
  ["O=C(NCCn1cccc1)c1ccc2ccn(Cc3ccc(-c4nn[nH]n4)cc3)c(=O)c2c1", "49 µM"]
]}

Summary for this molecule, `COc1ccc(CNC(=O)c2ccc3ccn(Cc4ccc(C#N)cc4)c(=O)c3c2)cc1` : IC50 is 0.24 µM

Summary for this molecule, `Cc1ccc(CNC(=O)c2ccc3ccn(Cc4ccc(S(C)(=O)=O)cc4)c(=O)c3c2)cc1` : IC50 is > 30 µM

Field IC50 (entry `COc1cc(CNC(=O)c2ccc3ccn(CCOc4ccccc4)c(=O)c3c2)ccn1` ) reads 3.8 µM

Lookup result for `O=C(NCc1ccncc1)c1ccc2ccn(Cc3ccc(-c4nn[nH]n4)cc3)c(=O)c2c1` ; measured IC50: 0.04 µM

The molecule identified as `CS(=O)(=O)c1ccc(Cn2ccc3ccc(C(=O)NCc4ccncc4)cc3c2=O)cc1` registered its IC50 at 3.1 µM

molecule `O=C(NCc1cncnc1)c1ccc2ccn(CCOc3ccccc3)c(=O)c2c1` , IC50 observed: > 100 µM

Value of measured IC50 for the entry `N#Cc1ccc(Cn2ccc3ccc(C(=O)NCc4cccnc4)cc3c2=O)cc1` : 3.4 µM

---

Target: MMP-13 catalytic domain (MMP-13CD) (Homo sapiens)
Construct: use the catalytic domain of the MMP-13 enzyme, namely matrix metalloproteinase-13 catalytic domain (“MMP-13CD”), rather than the corresponding full-length enzyme
Assay: Inhibition of MMP-13 catalytic domain (thiopeptolide substrate hydrolysis)
Format: biochemical
Conditions: Biological Table 1; read-out: MMP-13CD IC50
experimental_endpoint: IC50 (nM)
Your answer is read as nM, so omit the unit and give the number.

Worked set:
{"columns": ["record_smiles", "display_unit", "IC50"],
 "data": [
  ["CSc1ccc(CNC(=O)c2ccc3ccn(Cc4ccc(C#N)cc4)c(=O)c3c2)cc1", "nM", 430],
  ["O=C(O)c1ccc(Cn2ccc3ccc(C(=O)NCc4ccncc4)cc3c2=O)cc1", "nM", 190],
  ["CS(=O)(=O)c1ccc(Cn2ccc3ccc(C(=O)NCc4cccnc4)cc3c2=O)cc1", "nM", 7400],
  ["COc1cc(CNC(=O)c2ccc3ccn(Cc4ccc(-c5nn[nH]n5)cc4)c(=O)c3c2)ccc1O", "nM", 91],
  ["CSc1ccc(CNC(=O)c2ccc3ccn(CCOc4ccccc4)c(=O)c3c2)cc1", "nM", 4200],
  ["O=c1c2cc(C#CCc3ccccc3)ccc2ccn1Cc1ccc(-c2nn[nH]n2)cc1", "nM", 2.9],
  ["O=C(O)c1ccc(Cn2ccc3ccc(C(=O)NCc4cncnc4)cc3c2=O)cc1", "nM", 1800],
  ["COc1ccc(CNC(=O)c2ccc3ccn(Cc4ccc(S(C)(=O)=O)cc4)c(=O)c3c2)cc1", "nM", 850],
  ["N#Cc1ccc(Cn2ccc3ccc(C#CCc4ccccc4)cc3c2=O)cc1", "nM", 49],
  ["COc1ccc(CNC(=O)c2ccc3ccn(Cc4ccc(F)c(F)c4)c(=O)c3c2)cc1", "nM", 330]
]}

Okay, next one:
Record `COc1cccc(CNC(=O)c2ccc3ccn(Cc4ccc(-c5nn[nH]n5)cc4)c(=O)c3c2)c1` , field IC50: 2.9

---

Target: MMP-12 catalytic domain (MMP-12CD) (Homo sapiens)
Construct: MMP-3 catalytic domain, MMP-12 catalytic domain, MMP-14 catalytic domain, and MMP-17 catalytic domain
Sequence (P39900 106-263 limits assumed, species assumed): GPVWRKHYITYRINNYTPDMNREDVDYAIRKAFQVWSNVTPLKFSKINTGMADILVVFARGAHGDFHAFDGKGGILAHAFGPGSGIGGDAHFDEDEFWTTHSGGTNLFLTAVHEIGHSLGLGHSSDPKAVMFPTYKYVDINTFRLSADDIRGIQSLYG
Assay: Inhibition of MMP-12 catalytic domain (thiopeptolide substrate hydrolysis)
Assay type: biochemical
pIC50: −log10 of the molar value.
experimental_endpoint: pIC50

{"columns": ["compound", "pIC50"],
 "data": [
  ["COc1cc(CNC(=O)c2ccc3ccn(Cc4ccc(S(C)(=O)=O)cc4)c(=O)c3c2)ccn1 [Example 51]", "< 4.52"],
  ["N#Cc1ccc(Cn2ccc3ccc(C#CCc4ccccc4)cc3c2=O)cc1 [Example 19]", "< 4.00"],
  ["COc1ccc(CNC(=O)c2ccc3ccn(Cc4ccc(-c5nn[nH]n5)cc4)c(=O)c3c2)cc1 [Example 58]", 4.25],
  ["O=c1c2cc(C#CCc3ccccc3)ccc2ccn1Cc1ccc(-c2nn[nH]n2)cc1 [Example 18]", "< 4.52"]
]}

COc1cccc(CNC(=O)c2ccc3ccn(Cc4ccc(-c5nn[nH]n5)cc4)c(=O)c3c2)c1 [Example 59] yielded pIC50 of < 5.00

Lab note: measured pIC50 of COc1cc(CNC(=O)c2ccc3ccn(Cc4ccc(F)c(F)c4)c(=O)c3c2)ccn1 [Example 23] was < 4.00

Documented pIC50 of O=C(NCc1ccncc1)c1ccc2ccn(Cc3ccc(-c4nn[nH]n4)cc3)c(=O)c2c1 [Example 57] : < 4.52

compound COc1cccc(CNC(=O)c2ccc3ccn(Cc4ccc(C#N)cc4)c(=O)c3c2)c1 [Example 37] , pIC50 observed: 4.89

Entry CSc1ccc(CNC(=O)c2ccc3ccn(Cc4ccc(-c5nn[nH]n5)cc4)c(=O)c3c2)cc1 [Example 61] , pIC50 reported as 5.30
